- Tested on: NCI/ADR-RES
- Test Details: NCI tumour cell line growth inhibition, 48 h
The source made the active and inactive calls. No stated cut-off is given here; in the data, active = GI50 up to about 1.1 µM and inactive = higher.
Parameter Measured: GI50

CCN(CC)C(=S)SS(=O)(=O)c1ccccc1C(=O)O ... > 100 µM (inactive)
COC(C)(C)CCc1[nH]c2ccccc2c1CC(=O)NCCc1cncn1C ... > 100 µM (inactive)
CC(Cc1ccccc1)N(C)Cc1nc(C2CCC([N+](=O)[O-])O2)no1 (stereo unspecified) ... 11.9 µM (inactive)
CCC(C)C(NC(=O)c1c2ccccc2nc2ccccc12)C(=O)O (stereo unspecified) ... > 100 µM (inactive)
COc1cccc2ccc3c(c12)C(=O)OC31CCc2c(C)cccc21 (stereo unspecified) ... 13.4 µM (inactive)

Sure, the documented GI50 for O=C(O)c1cc(-c2ccc3cc(O)c(O)cc3c2)ccc1O is > 12.5 µM (inactive)
